Each entry below lists one item and its recorded solubility thermodynamic value.
- TEST NAME: Thermodynamic solubility of compound at pH 7.4 aqueous phosphate buffer
- Assay type: physicochemical
- PROTOCOL CONDITIONS: read-out: Therm_solubility
MEASUREMENT KIND: solubility thermodynamic (µg/mL)

CS(=O)(=O)c1cc([N+](=O)[O-])c2sc(N3CCN(CC4CCC(F)(F)CC4)CC3)nc(=O)c2c1 :: 0.81
CS(=O)(=O)c1cc([N+](=O)[O-])c2sc(N3CCN(CC4CCCCC4)C4(CC4)C3)nc(=O)c2c1 :: 0.7

====

- TEST NAME: Metabolic stability in human liver microsomes assessed as half life at 1 uM preincubated for 10 mins followed by NADPH addition and further incubated upto 60 mins by LC-MS/MS analysis
- Type: ADME, Microsome
- PROTOCOL CONDITIONS: time 70 min
MEASUREMENT KIND: half-life at 1 µM (min)

O=c1nc(N2CCN(CC3CCCCC3)CC2)sc2c([N+](=O)[O-])cc(C(F)(F)F)cc12 [MACOZINONE] :: 62.1
CS(=O)(=O)c1cc([N+](=O)[O-])c2sc(N3CCN(CC4CCCCC4)CC3)nc(=O)c2c1 :: 28.8
CS(=O)(=O)c1cc([N+](=O)[O-])c2sc(N3CCN(CC4CCCCC4)C4(CC4)C3)nc(=O)c2c1 :: 22.6
CS(=O)(=O)c1cc([N+](=O)[O-])c2sc(N3CCN(CC4CCC(F)(F)CC4)CC3)nc(=O)c2c1 :: 38.6

====

- TEST NAME: Plasma protein binding in human
- Assay type: ADME, cell-free
- PROTOCOL CONDITIONS: read-out: PPB (converted)
MEASUREMENT KIND: fraction unbound

CS(=O)(=O)c1cc([N+](=O)[O-])c2sc(N3CCN(CC4CCCCC4)CC3)nc(=O)c2c1 :: 0.025
CS(=O)(=O)c1cc([N+](=O)[O-])c2sc(N3CCN(CC4CCCCC4)C4(CC4)C3)nc(=O)c2c1 :: 0.016
CS(=O)(=O)c1cc([N+](=O)[O-])c2sc(N3CCN(CC4CCC(F)(F)CC4)CC3)nc(=O)c2c1 :: 0.021
